B1: TPR 5TU (parent)
chain: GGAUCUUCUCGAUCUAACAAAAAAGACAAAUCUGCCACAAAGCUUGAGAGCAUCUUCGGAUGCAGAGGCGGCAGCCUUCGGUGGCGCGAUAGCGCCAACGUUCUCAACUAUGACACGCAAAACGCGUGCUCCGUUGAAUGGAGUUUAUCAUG

Variants of: B1
METHOD NOTES: polymerase ribozyme fitness, log enrichment relative to wild type (log ratio); higher = more active; in vitro selection for triplet polymerase activity
Variants at the floor of the assay were thinned out.
Response key: class 1 means polymerase ribozyme fitness (log ratio) >= -2; class 0 means polymerase ribozyme fitness (log ratio) < -2.

MUTATION LIST: G50U C85A U144A U145C
ASSIGNED LABEL: class 1
--
MUTATION LIST: C54U G84C C93U U144C
ASSIGNED LABEL: class 0
--
MUTATION LIST: A30U A91U
ASSIGNED LABEL: class 0

Ask: Reported polymerase ribozyme fitness (log ratio) reaches at least -2 for A21U C87G ?
Result: class 0

Ask: Reported polymerase ribozyme fitness (log ratio) reaches at least -2 for U45A G140U ?
Result: class 0

Entry source: the RNAGym collection of RNA variant scans (doi:10.1073/pnas.2313332121)
